Origin of measurements: patent US20200095236A1

# Tested on: TLR-4 activity of A. baumannii culture supernatants
# Measurement notes: TLR4 assay: TLR4 activity of A. baumannii culture supernatants in HEK-Blue-hTLR4 cells
# Format: cell-based
# Condition parameters: Acinetobacter baumannii, HEK-Blue hTLR4, read-out: % TLR-4 activity
Measure name: activity at 16 µg/mL

{"Molecule": "O=C(NCC(F)(F)F)C(Cc1ccc(C#Cc2ccc(CN3CCOCC3)cc2)cc1)c1nc[nH]c(=O)c1O (stereo not shown)", "Recorded measurement": "< 20%"}
{"Molecule": "CO[C@@H]1CCN(Cc2ccc(C#Cc3ccc(CC(C(=O)NCC(F)F)c4nc[nH]c(=O)c4O)cc3)cc2)C1 (stereo partly shown)", "Recorded measurement": "20 to 50%"}
{"Molecule": "CCCNCC(Cc1ccc(C#Cc2ccc(CN3CCOCC3)cc2)cc1)c1nc[nH]c(=O)c1O (stereo not shown)", "Recorded measurement": "> 80%"}
{"Molecule": "CC(=O)NC[C@@H](Cc1ccc(C#Cc2ccc(CN3CCOCC3)cc2)cc1)c1nc[nH]c(=O)c1O", "Recorded measurement": "> 80%"}
{"Molecule": "O=C1CCCN1Cc1ccc(C#Cc2ccc(CC(CNCCF)c3nc[nH]c(=O)c3O)cc2)cc1 (stereo not shown)", "Recorded measurement": "20 to 50%"}
{"Molecule": "O=c1[nH]cnc(C(CNCCF)Cc2ccc(C#Cc3ccc(CN4CC5CCC(C4)O5)cc3)cc2)c1O (stereo not shown)", "Recorded measurement": "< 20%"}
{"Molecule": "O=C(NCC(Cc1ccc(C#Cc2ccc(CN3CCOCC3)cc2)cc1)c1nc[nH]c(=O)c1O)C(F)F (stereo not shown)", "Recorded measurement": "< 20%"}
